B1: Cold shock protein CspB, residues 1 to 66; numbered along this chain, P41016 (parent)
chain: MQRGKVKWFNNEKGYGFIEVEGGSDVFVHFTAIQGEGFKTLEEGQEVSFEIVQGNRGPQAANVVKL

Variants of: B1
assay-explanation: abundance fitness (aPCA) (normalised: wild type 0, dead -1); higher = more abundant; growth selection in yeast, the domain comes from the species named
setup-conditions: Bacillus caldolyticus
Reported values of abundance fitness for individual entries
reported-endpoint: abundance fitness

mut=Q34L recorded_measurement=-0.02
mut=F38H recorded_measurement=-0.132
mut=E43W recorded_measurement=-0.045
mut=E21W recorded_measurement=-0.033
mut=K13G recorded_measurement=-0.131
mut=Q45L recorded_measurement=-0.021
mut=Q2P recorded_measurement=-0.206
mut=K7W recorded_measurement=-0.49
mut=Q34K recorded_measurement=0.01
mut=Q34H recorded_measurement=-0.123
mut=F38I recorded_measurement=-0.041
mut=G4T recorded_measurement=-0.77
mut=F9K recorded_measurement=-0.389
mut=E12W recorded_measurement=0.005
mut=E21K recorded_measurement=-0.017
mut=T40K recorded_measurement=-0.065
mut=G16H recorded_measurement=-1
mut=K5I recorded_measurement=-0.037
mut=K7G recorded_measurement=-0.106
mut=T31Y recorded_measurement=-0.3
mut=T40C recorded_measurement=-0.006
mut=K7N recorded_measurement=-0.016
